# system under test: UniProt P21397
# Sequence (P21397 whole entry): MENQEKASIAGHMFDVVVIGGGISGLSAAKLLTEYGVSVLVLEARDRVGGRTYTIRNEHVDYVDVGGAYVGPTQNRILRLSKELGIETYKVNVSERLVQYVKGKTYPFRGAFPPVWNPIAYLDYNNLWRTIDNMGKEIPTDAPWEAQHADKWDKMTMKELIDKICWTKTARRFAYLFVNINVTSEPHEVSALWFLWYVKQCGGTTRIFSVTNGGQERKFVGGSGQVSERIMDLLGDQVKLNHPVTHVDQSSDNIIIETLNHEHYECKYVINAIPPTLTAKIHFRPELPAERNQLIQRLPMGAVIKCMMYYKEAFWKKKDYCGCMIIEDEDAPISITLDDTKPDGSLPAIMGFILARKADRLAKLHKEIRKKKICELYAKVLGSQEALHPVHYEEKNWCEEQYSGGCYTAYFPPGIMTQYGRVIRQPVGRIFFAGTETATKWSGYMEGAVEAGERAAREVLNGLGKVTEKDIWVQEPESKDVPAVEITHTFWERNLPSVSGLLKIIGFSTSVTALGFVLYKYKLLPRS
# protocol description: Inhibition of MAO-A (unknown origin) at 20 uM relative to control
parameter measured: inhibition at 20 µM (%)
Please reply with the bare figure in % and do not write the unit itself.

Inquiry: May I ask what inhibition at 20 µM has been recorded for CCCSc1nc2c(nnn2CCNC(=S)Nc2cccc3ccccc23)c(=O)[nH]1 ?
Reply text: 3.9
